# STUDY TARGET: PRMT5/MEP50 complex (Homo sapiens (Human))
# Sequence (O14744 2-637): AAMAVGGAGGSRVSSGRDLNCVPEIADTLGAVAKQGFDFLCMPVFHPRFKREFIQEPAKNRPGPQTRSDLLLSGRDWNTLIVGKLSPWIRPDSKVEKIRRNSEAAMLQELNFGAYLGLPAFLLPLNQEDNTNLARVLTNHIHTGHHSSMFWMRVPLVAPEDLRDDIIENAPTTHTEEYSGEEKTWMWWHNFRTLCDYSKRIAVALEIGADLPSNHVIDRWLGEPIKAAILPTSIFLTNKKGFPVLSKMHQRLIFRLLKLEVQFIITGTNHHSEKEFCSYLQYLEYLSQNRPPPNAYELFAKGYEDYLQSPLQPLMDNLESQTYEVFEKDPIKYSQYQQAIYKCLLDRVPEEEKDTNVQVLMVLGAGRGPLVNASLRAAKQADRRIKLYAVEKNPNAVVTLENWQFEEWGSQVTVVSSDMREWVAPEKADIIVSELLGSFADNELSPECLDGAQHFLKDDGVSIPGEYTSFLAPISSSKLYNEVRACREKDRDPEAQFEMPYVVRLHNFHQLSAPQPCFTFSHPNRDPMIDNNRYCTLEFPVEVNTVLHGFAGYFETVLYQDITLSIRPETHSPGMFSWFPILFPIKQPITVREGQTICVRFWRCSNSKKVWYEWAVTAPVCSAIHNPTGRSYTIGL
# Sequence (Q9BQA1 2-342 partner): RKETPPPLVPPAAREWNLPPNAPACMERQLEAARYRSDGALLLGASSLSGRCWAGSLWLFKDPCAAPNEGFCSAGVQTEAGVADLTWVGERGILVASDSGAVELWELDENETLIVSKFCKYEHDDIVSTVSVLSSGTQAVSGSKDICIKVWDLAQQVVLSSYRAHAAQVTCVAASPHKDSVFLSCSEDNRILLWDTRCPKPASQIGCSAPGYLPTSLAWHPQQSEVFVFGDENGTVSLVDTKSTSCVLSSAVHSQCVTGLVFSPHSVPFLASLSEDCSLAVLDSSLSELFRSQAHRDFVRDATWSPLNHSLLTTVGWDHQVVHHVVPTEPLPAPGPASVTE
# TEST: PRMT5:MEP50 FlashPlate Assay (histone H4 peptide substrate, plus and minus MTA)
# Format: biochemical
# PARTICULARS: IC50 + 2 μM MTA (nM), in the presence of 2 μM MTA
# Method: The PRMT5 inhibitory activity of compounds of the present invention was determined using either a PRMT5:MEP50 FlashPlate Assay (Reaction Biology Corporation) or a PRMT5:MEP50 HotSpot Assay (Reaction Biology Corporation). 1. PRMT5:MEP50 FlashPlate Assay
# label = Fulfilled if IC50 < 200 nM else Not fulfilled

Here are 4 compounds together with their reported answers.
[in] Threshold test, IC50 < 200 nM: COc1ccc2ncc(-c3ccc4c(=O)[nH]nc(CN)c4c3)n2c1 [Example 4-16]
[out] Fulfilled

[in] Moving on to the next compound: Cn1cc(-c2ccc3c(=O)[nH]nc(CN)c3c2)c(C(F)(F)F)n1 [Example 3-25]
[out] Not fulfilled

[in] Follow-up entry: NCc1n[nH]c(=O)c2ccc(-c3cnn4c3CN(C(=O)C3CCCC3)CC4)cc12 [Example 4-87]
[out] Fulfilled

[in] Okay, and COc1ccc(-c2c(-c3ccc4c(=O)[nH]nc(CN)c4c3)cnn2C)cc1 [Example 4-98] ?
[out] Fulfilled

Others:
[in] Find out if reported IC50 for N#Cc1cc(F)ccc1-c1cncc(-c2ccc3c(=O)[nH]nc(CN)c3c2)c1 [Example 8-5] is less than 200 nM
[out] Fulfilled

[in] Same thing, different compound: CCCn1cc(-c2ccc3c(=O)[nH]nc(CN)c3c2)cn1 [Example 3-23]
[out] Not fulfilled

[in] Would you kindly repeat that for CC#Cc1cncc(-c2ccc3c(=O)[nH]nc(CN)c3c2)c1 [Example 3-39] ?
[out] Not fulfilled

[in] Now give it for N#Cc1cccc(Oc2cncc(-c3ccc4c(=O)[nH]nc(CN)c4c3)c2)c1 [Example 4-69] too.
[out] Fulfilled

[in] Please do the same for CC(C)N1CCn2ncc(-c3ccc4c(=O)[nH]nc(CN)c4c3)c2C1 [Example 4-81] as well.
[out] Fulfilled

###

# STUDY TARGET: PRMT5/MEP50 complex (Homo sapiens (Human))
# TEST: PRMT5:MEP50 FlashPlate Assay (histone H4 peptide substrate, plus and minus MTA)
# Format: biochemical
# PARTICULARS: in the absence of MTA, read-out: IC50
// reported pIC50 for each item listed
# pIC50: negative log10 of molar concentration; output just the value

Guide cases for pIC50, answers given:
[in] Entry under review: COc1cccc(-c2c(-c3ccc4c(=O)[nH]nc(CN)c4c3)cnn2C)c1C#N [Example 4-107] . Reported pIC50?
[out] 7.43

[in] Now give it for NCc1n[nH]c(=O)c2ccc(-c3cnc4ccc(Cl)nn34)cc12 [Example 4-18] too.
[out] 5.35

[in] Next: NCc1n[nH]c(=O)c2ccc(-c3cnsc3)cc12 [Example 4-2]
[out] 4.86

[in] Please do the same for CCc1ccc(-c2ccc3c(=O)[nH]nc(CN)c3c2)cn1 [Example 3-3] as well.
[out] 5.00

[in] How about COc1cncc(-c2ccc3c(=O)[nH]nc(CN)c3c2)c1 [Example 3-45] ?
[out] 5.17

Further cases:
[in] Given the compound Cc1ncc(-c2ccc3c(=O)[nH]nc(CN)c3c2)n1CC#N [Example 4-109] , what is its reported pIC50?
[out] 5.31

[in] And NCc1n[nH]c(=O)c2ccc(-c3cnc4cc(F)ccn34)cc12 [Example 4-29] ?
[out] 5.39

[in] Likewise for NCc1n[nH]c(=O)c2ccc(-c3cnc4[nH]cc(Cl)c4c3)cc12 [Example 4-44] ?
[out] 6.16

[in] Ok, now NCc1n[nH]c(=O)c2ccc(-c3cnn4c3CN(Cc3ccccc3)CC4)cc12 [Example 4-79]
[out] 6.03

[in] Moving on to the next compound: CCOc1ccc2ncc(-c3ccc4c(=O)[nH]nc(CN)c4c3)n2c1 [Example 4-36]
[out] 6.27

###

# STUDY TARGET: PRMT5/MEP50 complex (Homo sapiens (Human))
# TEST: PRMT5:MEP50 FlashPlate Assay (histone H4 peptide substrate, plus and minus MTA)
# Format: biochemical
# PARTICULARS: in the absence of MTA, read-out: IC50
Documented IC50 across a set of compounds

// known answers, use as guide
[in] Can you share its IC50? I mean this compound: NCc1n[nH]c(=O)c2ccc(-n3ccnc3)cc12
[out] > 100 µM

[in] Another compound to check: NCc1n[nH]c(=O)c2ccc(-c3cnco3)cc12
[out] > 100 µM

Now consider the entry below.
[in] Give its IC50 value. Item: COc1ccn2c(-c3ccc4c(=O)[nH]nc(CN)c4c3)cnc2c1
[out] > 100 µM

Taken from patent US11479551B2.
